Hi there, I'd appreciate the recorded growth for every entry that follows.
tested on: NCI-H460 lung; assay: NCI-60 one-dose screen, 48 h (100 = growth as untreated, 0 = no growth, -100 = all killed); settings: 10 µM unless noted
The panel holds about 83,000 compounds, 20% with a hit somewhere; the sample as a whole holds those more often.
Give bare numbers, in %.

Use the examples below as a reference point.
[[record]]
molecule = "CCN(CC)CC(=O)Nc1ccc2ncnc(Nc3ccc(Oc4cccc(F)c4)c(Cl)c3)c2c1"
units_label = "%"
experimental_value = 36.9

[[record]]
molecule = "O=C(/C=C/C12c3ccccc3C(c3ccccc31)C1C(=O)NC(=O)C12)c1ccncc1 (stereo not given)"
units_label = "%"
experimental_value = 24.9


# return growth for each item in the list
1. CCN1C(=O)N(c2ccccc2)C2NC(=S)N(/N=C/C=C/c3ccccc3)C21 (stereo not given)
2. Cc1ccc(/C=C/c2c(C(=O)/C=C/c3ccccc3)c(C)nc3ccccc23)cc1
3. COC(=O)[C@H]1Cc2c([nH]c3ccccc23)[C@@H](c2cccs2)N1
4. O=C(NNC(=S)Nc1ccccc1)c1ccncc1
5. N=C(N)c1ccc(-c2ccc(-c3ccc(Cl)c(Cl)c3)s2)cc1
6. Cc1ccc2nc3ccccc3c(NCc3ccc(Cl)cc3)c2c1
7. COC(=O)c1c2c(c(C)[n+]([O-])c1C)C(=O)C(NCCN1CCOCC1)=CC2=O
8. Nc1n[nH]c2cccc(C#Cc3cccc(NC(=O)c4ccc(N5CCOCC5)c(C(F)(F)F)c4)c3)c12

Marked response:
1: 8.06; 2: -9.62; 3: 105; 4: 118; 5: -58.7; 6: 29.5; 7: 55.4; 8: 18.7
